B1: C22orf31 (parent)
chain: YSLELGKAIKQKLWEALCSQGAIS

# Variants of: B1
# ASSAY PROCEDURE: protein stability index of a GFP-peptide fusion (GPS, HEK-293T) (PSI 1-6); higher = more stable;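 further: lentivirally expressed fusions sorted by FACS into six bins by GFP to DsRed ratio, PSI derived from sequencing read proportions per bin multiplied by bin number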
# SETUP CONDITIONS: c terminus: a fixed tail appended
PARAMETER MEASURED: protein stability index

INSERT INTO assay_data (change, recorded_measurement) VALUES
  ('S24Q', 2.92),
  ('G6D', 1.9),
  ('I23D', 1.62),
  ('L5Q', 1.35),
  ('K12R', 1.53),
  ('G6C', 2.16),
  ('W14K', 2),
  ('S19N', 3.94);

Batch lookup, protein stability index per entry.
1. E4F
2. L5I
3. G21N
4. K12T
5. G6F

**Result**
1: 3.85; 2: 3.07; 3: 3.07; 4: 2.87; 5: 2.28

Take each entry in turn and give its protein stability index.
1. G6P
2. S2D
3. I9G
4. L3H

**Result**
1.36
1.56
1.84
1.66

Items follow; give protein stability index for each.
1. Y1I
2. S24T
3. K12S

**Result**
3.2
1.83
1.39

Working through the 2 variants below one at a time, give protein stability index for each.
1. Y1H
2. L5G

**Result**
[2.79, 1.82]

List protein stability index for every entry below, keeping the order given.
1. L5W
2. Y1Q
3. S24A
4. A16G
5. W14C

**Result**
1: 1.96; 2: 2.81; 3: 2.68; 4: 2.26; 5: 1.62

Provide each entry's protein stability index from the list below.
1. K10Y
2. I23E
3. G6N
4. K10N
5. E15P

**Result**
[1.9, 2.37, 1.91, 2.54, 2.25]

Give protein stability index for all variants that follow.
1. W14V
2. A8M

**Result**
1. 3.18
2. 2.31

Report protein stability index for each item below.
1. K10F
2. S19R
3. L5N
4. A8N
5. A16N

**Result**
1: 3.08; 2: 2.46; 3: 1.59; 4: 2.57; 5: 1.29
